targetOrSystem: T1, natriuretic peptide receptor-B (human)
T1 chain: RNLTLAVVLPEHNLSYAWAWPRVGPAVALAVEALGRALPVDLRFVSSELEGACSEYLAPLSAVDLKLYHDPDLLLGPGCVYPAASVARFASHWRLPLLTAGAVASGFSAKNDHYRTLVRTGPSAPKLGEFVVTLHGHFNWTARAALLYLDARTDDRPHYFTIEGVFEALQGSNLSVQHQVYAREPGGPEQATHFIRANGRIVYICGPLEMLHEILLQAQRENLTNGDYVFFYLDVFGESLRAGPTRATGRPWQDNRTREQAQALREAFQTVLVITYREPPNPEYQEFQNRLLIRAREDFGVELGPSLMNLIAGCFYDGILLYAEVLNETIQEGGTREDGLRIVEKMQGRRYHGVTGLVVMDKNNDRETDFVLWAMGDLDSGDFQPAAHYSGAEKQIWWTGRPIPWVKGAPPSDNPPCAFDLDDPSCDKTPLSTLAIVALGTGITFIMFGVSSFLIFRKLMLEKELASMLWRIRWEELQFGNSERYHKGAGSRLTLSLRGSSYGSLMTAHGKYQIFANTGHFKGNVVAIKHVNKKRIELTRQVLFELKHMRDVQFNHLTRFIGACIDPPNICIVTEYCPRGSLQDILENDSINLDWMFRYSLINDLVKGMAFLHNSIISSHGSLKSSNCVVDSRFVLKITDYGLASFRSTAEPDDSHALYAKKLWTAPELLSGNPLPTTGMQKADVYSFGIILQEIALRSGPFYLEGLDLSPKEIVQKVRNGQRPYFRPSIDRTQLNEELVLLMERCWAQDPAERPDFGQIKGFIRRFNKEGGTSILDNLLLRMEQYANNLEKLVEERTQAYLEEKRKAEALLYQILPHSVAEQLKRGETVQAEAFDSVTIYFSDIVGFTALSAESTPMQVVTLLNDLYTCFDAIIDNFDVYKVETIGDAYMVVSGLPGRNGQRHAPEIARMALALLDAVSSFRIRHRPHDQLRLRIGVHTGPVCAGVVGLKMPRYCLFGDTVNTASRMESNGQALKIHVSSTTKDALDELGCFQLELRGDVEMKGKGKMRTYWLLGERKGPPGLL
experimentalDetails: cell-based or functional assay
Numbered stars: 1 amine (or outer) side, 2 acyl side, 3 side chain; on linkers, the order of the positions; unused ones are H or OH. Square brackets hold non-standard residues; d marks the D form. Ends that are not written are not given here. * marks the point of attachment. Pro(trans-4-NH2) = O=C([C@@H]1C[C@@H](N[*:3])CN1[*:1])[*:2]; Pro(trans-4-guanidino) = N=C(N)N[C@H]1CN[C@H](C(=O)O)C1; Sni = (S)-nipecotic acid, O=C([C@H]1CCCN([*:1])C1)[*:2]; Hyp = O=C(O)[C@@H]1C[C@@H](O)CN1; KM‑116‑167 = not defined here; NMeL = CN[C@@H](CC(C)C)C(=O)O; Octanoyl = CCCCCCCC(=O)*; Api = NC1(C(=O)O)CCNCC1; Che = not defined here; Occ = octanoic acid
reportedProperty: EC50 group, cGMP in GTM-3 cells

# example entries with known answers
{"columns": ["binder", "reportedProperty", "experimentalResult"],
 "data": [
  ["Octanoyl-AFR[KM‑116‑167][NMeL]DRI-NH2 (not fully specified (some residues); printed as Occ-ala-Phe-arg-(KM-116-167)-Nml-Asp-Arg-Ile-NH2; reading uncertain) [JAL-1159]", "EC50 group, cGMP in GTM-3 cells", "≤ 15 µM"],
  ["Octanoyl-[dA]F[dR]L[Pro(trans-4-guanidino)]LDRI-NH2 [JAL-1271]", "EC50 group, cGMP in GTM-3 cells", "≤ 5 µM"],
  ["Octanoyl-[Sni]FLL[Hyp][NMeL]VP[Che] (not fully specified (some residues); printed as Occ-Sni-Phe-leu-Leu-Hyp-Nml-Val-Pro-Che; reading uncertain) [JAL-1594]", "EC50 group, cGMP in GTM-3 cells", "≤ 5 µM"]
]}

# input for lookup
Data request: Given the binder [Occ][Sni]F[Api]L[Pro(trans-4-NH2)][NMeL]DP[Che] (reading uncertain; also: printed as Occ-Sni-Phe-Apc-Leu-Tap-Nml-Asp-Pro-Che) [JAL-1602] , write its reported EC50 group, cGMP in GTM-3 cells.
Data returned: ≤ 1 µM

meta.source: patent US9187525B2
